Substrate: Cc1cc(=O)oc2cc(NC(=O)[C@@H](N)CCCNC(=N)N)ccc12
Assay: fluorescence of released amc, Hill equation fit
Type: biochemical, Pyrococcus horikoshii
Conditions: 50 mM sodium phosphate pH 7.5, 358 K, 60 min, aminopeptidase, 85.0 °C

PROTEIN	Km [µM]
PH1704 protease (Pyrococcus horikoshii OT3; Y120W) (protein, full-length gene in pET-15b (NdeI/BamHI), His-tag (detected by anti-His western blot), E. coli BL21(DE3); heat step and Sephacryl S-200) MKVLFLTANEFEDVELIYPYHRLKEEGHEVYIASFERGTITGKHGYSVKVDLTFDKVNPEEFDALVLPGGRAPERVRLNEKAVSIARKMFSEGKPVASICHGPQILISAGVLRGRKGTSWPGIKDDMINAGVEWVDAEVVVDGNWVSSRVPADLYAWMREFVKLLK	20.6
PH1704 protease (Pyrococcus horikoshii OT3; Y120S) (protein, full-length gene in pET-15b (NdeI/BamHI), His-tag (detected by anti-His western blot), E. coli BL21(DE3); heat step and Sephacryl S-200) MKVLFLTANEFEDVELIYPYHRLKEEGHEVYIASFERGTITGKHGYSVKVDLTFDKVNPEEFDALVLPGGRAPERVRLNEKAVSIARKMFSEGKPVASICHGPQILISAGVLRGRKGTSSPGIKDDMINAGVEWVDAEVVVDGNWVSSRVPADLYAWMREFVKLLK	9.0
PH1704 protease (Pyrococcus horikoshii OT3; Y120P) (protein, full-length gene in pET-15b (NdeI/BamHI), His-tag (detected by anti-His western blot), E. coli BL21(DE3); heat step and Sephacryl S-200) MKVLFLTANEFEDVELIYPYHRLKEEGHEVYIASFERGTITGKHGYSVKVDLTFDKVNPEEFDALVLPGGRAPERVRLNEKAVSIARKMFSEGKPVASICHGPQILISAGVLRGRKGTSPPGIKDDMINAGVEWVDAEVVVDGNWVSSRVPADLYAWMREFVKLLK	11.3
